# measuredOn: GlcNAc(b1-3)Gal(b1-4)GlcNAc(b1-2)Man(a1-3)[GlcNAc(b1-3)Gal(b1-4)GlcNAc(b1-2)Man(a1-6)]Man(b1-4)GlcNAc(b1-4)[Fuc(a1-6)]GlcNAc
# methodDescription: glycan array binding signal (z-score within array); higher = stronger binding
# experimentalContext: glycan notation: IUPAC condensed, linker removed
Shown is part of a subset that was picked to be rich in the strongest signals.
Assign True to entries whose glycan array binding signal (z-score) meets or exceeds 2; assign False to the rest.

Does the reported glycan array binding signal (z-score) for Threefoil (Haloarcula marismortui) (protein) GSSHHHHHHHHHHSSGLVPRGSHMGDGYYKLVARHSGKALDVENASTSDGANVIQYSYSGGDNQQWRLVDLGDGYYKLVARHSGKALDVENASTSDGANVIQYSYSGGDNQQWRLVDLGDGYYKLVARHSGKALDVENASTSDGANVIQYSYSGGDNQQWRLVDL fall at or above the 2 mark?
False

Here is the next binder: HML-Native (Hypnea musciformis), P84871 (protein) QKFCTLDIAPVCCQIVIGGGMYTAGNACMCEGFVSGVGRCENPKECPCTREAQIPSCCSSRWGLVSVTGKCACDCLGGTVAFPEPCPSPY
True

Please do the same for HPL (Tachypleus tridentatus) (protein) MEDDCTCVTDRSLEGKLMKHPSTPAVYQILDGCRRLVPNPPTYNNIYKNWECIQSNILEKLLCKCDSLSNGAELIKGSGDTVYLLSNGVKRPIADPETFNGFCFDWNKIKTYSDIVINSLSTGPIIIIKHHHHHH as well.
False

Try this binder next: Clec49 (Caenorhabditis elegans) (protein) MTRLTLLLFGLLGAATAQTCNTGGIYNEQFNRCYQYFTAPAQFSFAEQQCNLLGGHLASVQNGQENALLQSNAANSFKRSNYSDYWIGATDLETSGTWKWTDPSVTFDYSNWQLGEPQSGSDCAIQDKGDGTWSAIGCTSYRPYVCVTPVIMTATCPPITTPIPTTCPTPAPCPIKQCVPSCDQGWTYFSPTDFCYRVYHGEKFNDAEASCVLLGGHLASIHSLTENTFVNNIASCGIKEGKYEHLAWIGMRKVGQDWVWTDGTPSDYFNWAPKQPDNPKKELCVQTAPDLSHDKWYENWNNLECNEVMRAYICKKASIHN
False

One more binder: APVPVTKLVCDGDTYKCTAYLDFGDGRWVAQWDTNVFHTG [PhoSpL (Pholiota squarrosa)]
True
